# experimental target: Solute carrier family 2, facilitated glucose transporter member 1 (Homo sapiens) (UniProt P11166)
# Sequence (P11166 whole entry): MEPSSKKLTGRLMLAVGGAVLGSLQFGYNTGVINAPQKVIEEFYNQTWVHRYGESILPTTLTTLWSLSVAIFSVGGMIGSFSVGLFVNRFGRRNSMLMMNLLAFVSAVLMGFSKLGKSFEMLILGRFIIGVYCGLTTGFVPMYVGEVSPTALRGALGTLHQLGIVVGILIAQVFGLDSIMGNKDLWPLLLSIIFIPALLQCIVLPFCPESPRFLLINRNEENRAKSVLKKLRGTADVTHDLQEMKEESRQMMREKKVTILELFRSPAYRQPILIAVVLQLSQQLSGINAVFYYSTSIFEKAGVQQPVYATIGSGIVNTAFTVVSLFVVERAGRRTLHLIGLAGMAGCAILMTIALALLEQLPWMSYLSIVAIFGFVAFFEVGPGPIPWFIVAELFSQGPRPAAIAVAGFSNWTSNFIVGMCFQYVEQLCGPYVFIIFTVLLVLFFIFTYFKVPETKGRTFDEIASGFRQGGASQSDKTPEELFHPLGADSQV
# protocol description: ST_JUDE_LEISH: Cytotoxicity at 2uM final concentration against transgenic Leishmania Mexicana promastigotes LmGLUT1 that are glucose transport deficient and complemented with the human glucose transporter GLUT1. Activity is measured by DNA content using SYBR green in vitro
# Assay type: functional
Measured inhibition, listed per entry.
Answer format: numeric, % implied, no suffix.

COc1cc(NC(=O)c2sc(-c3ccc(Cl)cc3)cc2NC(=O)CN2CCCC2)ccc1OCCN1CCCC1    5.97
CN1CCN(c2ccc(Nc3nccc(-c4c(-c5cccc(NC(=O)c6c(F)cccc6F)c5)nn5ccccc45)n3)cc2)CC1    21.9
O=C(Cn1cc(C=C2SC(=NC3CCCC3)N(C3CCCC3)C2=O)c2ccccc21)N1CCCC1    4.24
NC(=O)c1cc(-c2ccccc2)cc2c(C3CCC(NCc4ccccc4)C3)c[nH]c12 (stereo unspecified)    0.91
CCC(C)(C)C1CCc2[nH]c3ccccc3c(=O)c2C1 (stereo unspecified)    9.6
Cc1cc(N(C)C)nc(Nc2ccc(NC(=O)Nc3ccccc3)cc2)n1    2.43

Enquiry: Value lookup for inhibition; key = CN1CCC(NCCS(=O)(=O)c2cccc(Nc3ccc(-c4cccc(F)c4)cn3)c2)CC1
Return: 0.4

Enquiry: Value lookup for inhibition; key = Cn1cc(C(=O)Nc2cccc(-c3cccc(-c4nc5ccccc5[nH]4)c3)c2)n(C)c1=O
Return: 4.31

Enquiry: Value lookup for inhibition; key = CC1(C)CCCN(c2ncc(-c3cccc(CNCc4ccccc4O)c3)cn2)C1
Return: 2.91

Enquiry: Value lookup for inhibition; key = Cc1cc(OCCCN2CCCCC2C)ccc1NC(=O)COc1ccc(Cl)cc1C(=O)c1cc(Cl)cc(C#N)c1 (stereo unspecified)
Return: 74.2

Enquiry: Value lookup for inhibition; key = O=C(Nc1ccc(OC(F)(F)F)cc1)Nc1ccc([N+](=O)[O-])cc1
Return: 1.82

Enquiry: Value lookup for inhibition; key = COC1CCC(C(=O)Nc2ccc(-c3cccc(-c4nc5cc(C(F)(F)F)ccc5[nH]4)c3)cc2)CC1 (stereo unspecified)
Return: 0.64

====

Measured inhibition, listed per entry.
# experimental target: Glucose transporter (Leishmania mexicana) (UniProt O61059)
# protocol description: ST_JUDE_LEISH: Cytotoxicity at 2uM final concentration against transgenic Leishmania Mexicana promastigotes LmGT2 that are glucose transport deficient and complemented with the L. Mexicana glucose transporter 2. Activity is measured by DNA content using SYBR green in vitro
# Type: functional
Answer format: numeric, % implied, no suffix.

Cc1ccc(S(=O)(=O)Nc2ccc(Nc3nccc(Nc4cccc5[nH]ncc45)n3)cc2)cc1    0.3
Cc1cc(C)cc(OCC(O)CN(Cc2cc(Cl)cc(Cl)c2)C(=O)Nc2ccc(Cl)cc2)c1 (stereo not drawn)    -0.48
O=C(CC(c1ccccc1)c1ccccc1O)N1CCOCC1 (stereo not drawn)    -0.06
CN1CCN(c2ccnc3ccc(NC(=O)c4ccc(Cl)c(Cl)c4)cc23)CC1    0.97
O=C(Nc1cccc([N+](=O)[O-])c1)N(Cc1ccc(Cl)c(Cl)c1)C1CCNCC1    3.8
NS(=O)(=O)NCCCN1CCN(c2ccccc2)CC1    1.5

Enquiry: Value lookup for inhibition; key = COc1ccc(N2CCN(CCCCNC(=O)c3ccc(NC(=O)c4cc(C(F)(F)F)cc(C(F)(F)F)c4)cc3)CC2)cc1OC
Return: 2.71

Enquiry: Value lookup for inhibition; key = CC(C)C[C@@H](/C=N/N1CC(=O)NC1=O)NC(=O)[C@H](CC(C)C)NC(=O)c1ccc(OCCN2CCOCC2)cc1
Return: 1.11
